- test_name: Saturation solubility of edaravone in water
- Assay type: physicochemical
value_type: solubility
Reply with the number, then its unit.

Reported solubility for "CC1=NN(c2ccccc2)C(=O)C1" was 2000 µg/mL
